# study-system: HLA-B*44:03
# assay: IEDB peptide-MHC binding, cellular MHC/competitive/fluorescence; bounds were set here for any values at or beyond the usual limits of such assays
# details: source organism: Mammarenavirus guanaritoense
outcome-measure: IC50

Exam item: Give the measured IC50 of ADKNLIKCS .
Marked response: ≥ 70 µM

* * *

# study-system: HLA-A*31:01
# assay: IEDB peptide-MHC binding, cellular MHC/competitive/fluorescence; bounds were set here for any values at or beyond the usual limits of such assays
# details: source organism: Mammarenavirus lassaense
outcome-measure: IC50

Exam item: Item under review: TSFYLISIFL . Reported IC50?
Marked response: ≥ 70 µM

* * *

# study-system: HLA-A*02:03
# assay: IEDB peptide-MHC binding, cellular MHC/competitive/fluorescence; bounds were set here for any values at or beyond the usual limits of such assays
# details: source organism: Vaccinia virus WR
Recorded IC50 determines the group label, using 0 = under 9 µM, 1 = from 9 µM up to 20 µM, 2 = 20 µM and over

Worked set:
ordered-residues | study-system | qualitative-label
DVEKRILNT | HLA-A*02:03 | 0
YAVLSEYET | HLA-A*02:03 | 2
IVPDADPPI | HLA-A*02:03 | 1
CVDHPFIYVI | HLA-A*02:03 | 1
CVRLNNPVIL | HLA-A*02:03 | 0
KVEKYLPEVI | HLA-A*02:03 | 1
QQNNSFIIST | HLA-A*02:03 | 0
GTKGKLYIAL | HLA-A*02:03 | 0
DTDIVNNFI | HLA-A*02:03 | 1
DVGCLLTDTI | HLA-A*02:03 | 1

Exam item: Lab note: sort VTTNNLLEQL into the matching IC50 band.
Marked response: 1

Exam item: Which of the defined bands does the recorded IC50 of EAFETQSGA sit within?
Marked response: 2

* * *

# study-system: HLA-A*02:01
# assay: IEDB peptide-MHC binding, purified MHC/competitive/radioactivity; bounds were set here for any values at or beyond the usual limits of such assays
# details: source organism: Vaccinia virus WR
Recorded pIC50 for the following sequences
Just so you know, pIC50 here is -log10 of the concentration in molar units; reply with that number alone.

Exam item: Would you kindly share the measured pIC50 for YMNYYTTYI ?
Marked response: 8.96

Exam item: Given ATICLKNEGV , state its recorded pIC50.
Marked response: 6.62

Exam item: State the recorded pIC50 for this entry: VVYSTCTVPT
Marked response: 5.64

* * *

# study-system: HLA-A*02:03
# assay: IEDB peptide-MHC binding, cellular MHC/competitive/fluorescence; bounds were set here for any values at or beyond the usual limits of such assays
# details: source organism: Mammarenavirus choriomeningitidis
outcome-measure: pIC50
The value called pIC50 is obtained by taking minus log10 of the concentration in mol/L.

Known results for sequences:
ordered-residues | pIC50
LSYSQTMLL | 4.95
FSLGAAVKA | 4.87
SNSEDLLKAV | 4.82
GTMPSLTMAC | 4.79
SCDDVVFGI | 4.30
YCNYSKFWYL | 5.02

Exam item: API: value(readout=pIC50, system=HLA-A*02:03) for record MSCDDVVFGI
Marked response: 4.92

* * *

// values below are reported pIC50
# study-system: HLA-A*02:06
# assay: IEDB peptide-MHC binding, purified MHC/competitive/radioactivity; bounds were set here for any values at or beyond the usual limits of such assays
# details: source organism: Mammarenavirus whitewaterense
Units for pIC50: none; it is -log10 of a concentration expressed in mol/L.

ordered-residues | study-system | pIC50
VCFWSTLFYV | HLA-A*02:06 | 5.95

Exam item: Look up pIC50 for this sequence: GLVDVCFWS
Marked response: 6.27

Exam item: I have this sequence here, FLLRGPFEAS , and I need its recorded pIC50.
Marked response: 7.15

Exam item: Need pIC50, item FSAVISGSV
Marked response: 6.79

Exam item: Which pIC50 is reported for this sequence? GLLQFIVFL
Marked response: 7.92

Exam item: Any idea what its pIC50 is? The sequence is YNLSLSAAV
Marked response: 5.78

Exam item: Sample TVIKTLLEV — what was its pIC50?
Marked response: 7.77

Exam item: Suppose we examine the sequence CNYTKFWYV ; what pIC50 value has been reported?
Marked response: 7.46

Exam item: Can you share its pIC50? I mean this sequence: LNASYITPYV
Marked response: 7.42

Exam item: Reported pIC50, sequence YCNYTKFWYV : ____
Marked response: 8.19
